Test system: a variety of test species
Assay: Post-emergence herbicidal activity (glasshouse, sprayed 8 days after sowing, evaluated after 13 days); also: key: 5=total damage to plant; 0=no damage to plant
Format: in vivo
Settings: Abutilon theophrasti, 1000 g/ha, scale 0-5
Experimental Readout: Post-emergence herbicidal damage score, ABUTH (Abutilon theophrasti)

Compound	Value Reported
CC1=C(Br)C(O)N(c2nn(C)c3c2CCC3(C)C)C1=O (centres unmarked)	5
CC1=C(Cl)C(O)N(c2cc(C(F)C(C)(C)C)n(C)n2)C1=O (mixture of isomers)	4
C=C(C)c1cc(N2C(=O)C(C)=C(Cl)C2O)nn1C (centres unmarked)	5
CC1=C(Cl)C(O)N(c2cc(S(C)(=O)=O)n(C)n2)C1=O (centres unmarked)	5
C/C=C\c1cc(N2C(=O)C(C)=C(Cl)C2O)nn1C (centres unmarked)	5

* * *

System: a variety of test species
Test: Post-emergence herbicidal activity (glasshouse, sprayed 8 days after sowing, evaluated after 13 days); also: key: 5=total damage to plant; 0=no damage to plant
Format: in vivo
Conditions: Amaranthus retroflexus, 1000 g/ha, scale 0-5
Experimental Readout: Post-emergence herbicidal damage score, AMARE (Amaranthus retroflexus)

Compound	Value Reported
CC(C)=CCc1cc(N2C(=O)C(C)=C(Br)C2O)nn1C (stereo not drawn) [Compound H3]	0
CCn1nc(N2C(=O)C(C)=C(Cl)C2O)cc1C(F)(F)F (stereo not drawn) [Compound C1]	5
CC1=C(Cl)C(O)N(c2cc(C(C)(C)C)n(C)n2)C1=O (stereo not drawn) [Compound B2]	5

* * *

System: a variety of test species
Assay: Post-emergence herbicidal activity (glasshouse, sprayed 8 days after sowing, evaluated after 13 days); also: key: 5=total damage to plant; 0=no damage to plant
Type: in vivo
Conditions: Amaranthus retroflexus, 1000 g/ha, scale 0-5
Experimental Readout: Post-emergence herbicidal damage score, AMARE (Amaranthus retroflexus)

Compound	Value Reported
COC1=C(Cl)C(OC(C)=O)N(c2cc(C(C)(C)C)n(C)n2)C1=O (centres unmarked)	5
CC1=C(Cl)C(O)N(c2cc(C3CC3)[nH]n2)C1=O (centres unmarked)	4
CC1=C(Cl)C(OC(=O)Oc2ccccc2)N(c2cc(C(C)(C)C)n(C)n2)C1=O (centres unmarked)	5
CC1=C(Cl)C(O)N(c2cc(C(C)C(F)(F)F)n(C)n2)C1=O (mixture of isomers)	5
CCC1CCCn2nc(N3C(=O)C(C)=C(Cl)C3O)cc21 (mixture of isomers)	5
CCC(C)c1cc(N2C(=O)C(C)=C(Cl)C2O)nn1C (mixture of isomers)	5
CC1=C(Cl)C(O)N(c2cc3n(n2)CCCC3(C)C)C1=O (centres unmarked)	5
CC1=C(Cl)C(O)N(c2cc(C#N)n(CC(F)(F)F)n2)C1=O (centres unmarked)	0
CCn1nc(N2C(=O)C(C)=C(Cl)C2O)cc1C(C)(C)C (centres unmarked)	4
CC1=C(Cl)C(O)N(c2cc([S+](C)[O-])n(C)n2)C1=O (centres unmarked)	5
C/C=C\c1cc(N2C(=O)C(C)=C(Cl)C2O)nn1C (centres unmarked)	5
CC1=C(Cl)C(O)N(c2cc(C)n(C)n2)C1=O (centres unmarked)	5
CC1=C(Br)C(O)N(c2nn(C)c3c2CCC3(C)C)C1=O (centres unmarked)	5
CC1=C(Cl)C(O)N(c2nn(C)c(C(C)(C)C)c2C#N)C1=O (centres unmarked) [Compound D1]	4
CCCC1=C(C)C(O)N(c2nn(C)c(C(C)(C)C)c2C#N)C1=O (centres unmarked)	2
CC(C)=C(C)c1cc(N2C(=O)C(C)=C(Cl)C2O)nn1C (centres unmarked)	1
CC1=C(Cl)C(O)N(c2ccn(C)n2)C1=O (centres unmarked)	3
CC1=C(Cl)C(OC(=O)OCC(C)C)N(c2cc(C(C)(C)C)n(C)n2)C1=O (centres unmarked)	5
CC1=C(Cl)C(O)N(c2cc(CCC(C)C)n(C)n2)C1=O (centres unmarked)	0
CSc1cc(N2C(=O)C(C)=C(Cl)C2O)nn1C (centres unmarked)	3
COC1=C(C)C(=O)N(c2cc3n(n2)CCCC3(C)C)C1O (centres unmarked)	5
CC1=C(Br)C(O)N(c2cc(C(F)(F)F)n(C)n2)C1=O (centres unmarked)	5
CC1=C(Cl)C(O)N(c2nn(C)c3c2CCCCC3(C)C)C1=O (centres unmarked)	4
